I'd appreciate it if you could supply normalized growth values for the items below.
# Test description: chemical genetic growth profiling, strain panel (AID 1159580);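 note: tested at 20 µM; growth read once vehicle control cultures reached saturation at 30 °C; 1 = growth at the plate median or of vehicle wells; lower values mean less growth of the strain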
# Condition details: S. cerevisiae deletion strains, growth OD, locus YEL003W, strain gim4, hits give low values
Among all 5,500 compounds or so, about 2,000 (36%) were called active. Inconclusive results (about 18%) are left out. The list shows a part of the results.
// return just the number, without any unit appended

-- ask normalized growth lookup needed for C[C@@H]1CC[C@@]2(OC1)OC1C(O)C3C4CC[C@H]5C[C@H](O[C@@H]6O[C@H](CO)[C@H](O[C@@H]7O[C@H](CO)[C@@H](O)[C@H](O[C@@H]8OC[C@@H](O)[C@H](O)[C@H]8O)[C@H]7O[C@@H]7O[C@H](CO)[C@H](O)[C@H](O[C@@H]8O[C@H](CO)[C@@H](O)[C@H](O)[C@H]8O)[C@H]7O)[C@H](O)[C@H]6O)[C@H](O)C[C@]5(C)C4CC[C@]3(C)C1[C@@H]2C (some centres not stated) , thanks.
-- reply 1

-- ask Next: CC1=C2C(=CO[C@H](C)[C@H]2C)C(=O)C(C(=O)O)=C1O
-- reply 0.988

---

I'd appreciate it if you could supply normalized growth values for the items below.
# Test description: chemical genetic growth profiling, strain panel (AID 1159580);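 note: tested at 20 µM; growth read once vehicle control cultures reached saturation at 30 °C; 1 = growth at the plate median or of vehicle wells; lower values mean less growth of the strain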
# Condition details: S. cerevisiae deletion strains, growth OD, locus YJL187C, strain SWE1 (second series), hits give low values
In all, about 5,500 compounds went through this assay and about 2,000 (36%) were called active. Another 18% or so got no clear call; they are omitted. The list shows a part of the results.
// return just the number, without any unit appended

-- ask normalized growth lookup needed for NS(=O)(=O)c1cc2c(cc1C(F)(F)F)NCNS2(=O)=O , thanks.
-- reply 1.02

-- ask Next: CC(=O)N(O)CCCCCNC(=O)CCC(=O)N(O)CCCCCNC(=O)CCC(=O)N(O)CCCCCN
-- reply 0.975

-- ask Next: Clc1ccc(Cl)cc1
-- reply 1.01

-- ask Next: CCC(CCC(C)[C@H]1CCC2C3CC=C4C[C@@H](O)CC[C@]4(C)C3CC[C@@]21C)C(C)C (stereo not given in full)
-- reply 0.977

-- ask Next: CC(=O)[C@H]1CCC2C3CC=C4C[C@@H](O)CC[C@]4(C)C3CC[C@@]21C (stereo not given in full)
-- reply 0.945

---

# Test description: chemical genetic growth profiling, strain panel (AID 1159580);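 note: tested at 20 µM; growth read once vehicle control cultures reached saturation at 30 °C; 1 = growth at the plate median or of vehicle wells; lower values mean less growth of the strain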
# Condition details: S. cerevisiae deletion strains, growth OD, locus YPR119W, strain clb2
Hit rate of the full screen: of about 5,500 compounds, about 2,000 (36%) were called active. Roughly 18% stayed inconclusive and do not appear here. No stated cut-off is given here; in the data, active means normalized growth mostly below about 0.91 (no sharp cut-off); inconclusive means no clear call, values can overlap the other calls; inactive means mostly above about 0.92. The list shows a part of the results.
Would you mind answering with one of these outcomes? active, inactive

-- ask What is the recorded call for this compound in the test? CN(C)CC/C=C1/c2ccccc2COc2ccccc21
-- reply inactive

-- ask Next: CN(C)CCC=C1c2ccccc2CCc2ccccc21
-- reply inactive

-- ask Next: CCN(CC)CCNc1ccc(CO)c2sc3ccccc3c(=O)c12
-- reply inactive

-- ask Next: Nc1nc(N)c2nc(-c3ccccc3)c(N)nc2n1
-- reply inactive

-- ask Next: CC(=O)O[C@H]1C[C@@]2(C)[C@H](c3ccoc3)OC(=O)[C@H]3O[C@]32[C@@]2(C)C1[C@]1(C)C(C[C@H]2OC(C)=O)C(C)(C)[C@H](OC(C)=O)C[C@@H]1OC(C)=O (some centres undefined)
-- reply inactive

-- ask Next: NCC(=O)CCC(=O)O
-- reply inactive

-- ask Next: O=c1c(-c2ccccc2)coc2cc(O)cc(O)c12
-- reply inactive

-- ask Next: COc1cc([C@@H]2c3cc4c(cc3[C@H](OC(C)=O)[C@H]3COC(=O)[C@H]23)OCO4)cc(OC)c1OC
-- reply inactive

-- ask Next: COc1cc(O)c2c(=O)c(-c3ccc(O)cc3)coc2c1
-- reply inactive

-- ask Next: COC(=O)C1=C(C)NC(C)=C(C(=O)OCCN(C)Cc2ccccc2)C1c1cccc([N+](=O)[O-])c1 (centres undefined)
-- reply inactive

-- ask Next: NC(=O)CC[C@@H](N)C(=O)O
-- reply inactive

-- ask Next: Cc1cc(=O)c2c(O)c3c(cc2o1)OC(C)(C)CC3
-- reply inactive

-- ask Next: COC(=O)C[C@H]1C(C)(C)C(=O)[C@@H]2CC3=C4CC(OC)O[C@@H](c5ccoc5)[C@]4(C)CCC3[C@@]1(C)C2=O (some centres undefined)
-- reply inactive

-- ask Next: Cc1cc(=O)c2c(o1)-c1c(cc(O)c(O)c1C(=O)O)OC2
-- reply inactive

-- ask Next: COc1ccc(-c2cc(=O)c3ccccc3o2)cc1
-- reply active

-- ask Next: COc1ccc(-c2cc(=O)c3ccccc3o2)cc1OC
-- reply inactive

-- ask Next: COc1ccc(-c2coc3cc(OC)cc(O)c3c2=O)cc1
-- reply inactive

-- ask Next: CC(C)Oc1ccc2c(=O)cc(-c3ccccc3)oc2c1
-- reply active

-- ask Next: CC(=O)Oc1cc(OC(C)=O)c2c(=O)c(-c3ccccc3)coc2c1
-- reply inactive

-- ask Next: C=C1C(N)CC2CC1C2(C)C (centres undefined)
-- reply inactive

-- ask Next: COc1c(O)cccc1O
-- reply inactive

-- ask Next: COc1ccc(-c2cc(=O)c3c(OC)cccc3o2)cc1
-- reply inactive

-- ask Next: Cc1cc(=O)c2c(O)c3c(cc2o1)OCC(C)CC3 (centres undefined)
-- reply active

-- ask Next: CN(C)CCC=C1c2ccccc2C=Cc2ccccc21
-- reply inactive

These data points were gathered from PubChem BioAssay AID1159580.
